- TARGET_OR_TEST_SYSTEM: recombinant human PIM2 (Homo sapiens (Human), UniProt Q9P1W9)
- Sequence (Q9P1W9 whole entry): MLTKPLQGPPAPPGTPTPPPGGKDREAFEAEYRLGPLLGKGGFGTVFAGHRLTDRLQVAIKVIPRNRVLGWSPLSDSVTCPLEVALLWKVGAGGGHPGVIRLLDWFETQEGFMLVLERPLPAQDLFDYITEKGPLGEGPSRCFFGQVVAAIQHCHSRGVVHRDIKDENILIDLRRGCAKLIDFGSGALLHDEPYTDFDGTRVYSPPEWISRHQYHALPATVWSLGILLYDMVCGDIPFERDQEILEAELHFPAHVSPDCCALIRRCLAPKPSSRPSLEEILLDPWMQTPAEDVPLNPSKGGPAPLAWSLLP
- ASSAY_INFO: PIM-2 assay (33P-ATP filter binding)
- Assay type: biochemical
- TEST_PARAMETERS: read-out: PIM2: IC50 (5 μM ATP); 5 μM ATP
pIC50: −log10 of the molar value.
ENDPOINT_LABEL: pIC50

1. O=C1NC(=O)C(=Cc2cnn3c(NC4CC4)cc(-c4csc(CN5CCCC5)c4)nc23)N1 : < 5.60

Could you tell me which pIC50 is on file for CC(=O)NC1CCC(Nc2cc(NC3CC3)n3ncc(/C=C4\NC(=O)NC4=O)c3n2)CC1 (stereo not drawn) [Example A3] ?
< 5.60

Could you tell me which pIC50 is on file for CN(C)C1CCN(Cc2cc(-c3cc(NC4CC4)n4ncc(C=C5NC(=O)NC5=O)c4n3)cs2)C1 (stereo not drawn) ?
< 5.60

* * *

Target or system CK2 ααββ (Homo sapiens (Human), UniProt P68400): recorded IC50 listed per item.

# count of solved cases: 6
1. CN(C)c1ccc(-c2cc(NC3CC3)n3ncc(/C=C4\NC(=O)NC4=O)c3n2)cn1 : < 10 nM
2. CC(C)Nc1cc(Nc2cccc(Cl)c2)nc2c(/C=C3\NC(=O)NC3=O)cnn12 : < 100 nM
3. COc1cccc(-c2cc(NC3CC3)n3ncc(/C=C4\NC(=O)NC4=O)c3n2)c1 : < 10 nM
4. Cc1c(N2CCN(c3ccccn3)CC2)nc2c(C=C3NC(=O)NC3=O)cnn2c1NC1CC1 : < 10 nM
5. CC(=O)NC1CCC(Nc2cc(NC3CC3)n3ncc(/C=C4\NC(=O)NC4=O)c3n2)CC1 (stereo not shown) [Example A3] : < 10 nM
6. N#Cc1cccc(-c2cc(NC3CC3)n3ncc(/C=C4\NC(=O)NC4=O)c3n2)c1 : < 10 nM

Could you tell me which IC50 is on file for COC(=O)N1CCC(Nc2cc(Nc3cccc(Cl)c3)nc3c(/C=C4\NC(=O)NC4=O)cnn23)CC1 ?
< 100 nM

Could you tell me which IC50 is on file for CC(C)(C)CC(=O)Nc1cc(NC2CC2)n2ncc(/C=C3\NC(=O)NC3=O)c2n1 ?
< 10 nM

Could you tell me which IC50 is on file for O=C1NC(=O)/C(=C/c2cnn3c(NC4CCNCC4)cc(Nc4cccc(Cl)c4)nc23)N1 ?
< 100 nM

Could you tell me which IC50 is on file for Cc1c(N2CCN(c3ncccc3C#N)CC2)nc2c(C=C3NC(=O)NC3=O)cnn2c1NC1CC1 ?
< 1000 nM

* * *

- TARGET_OR_TEST_SYSTEM: CK2 ααββ (Homo sapiens (Human), UniProt P68400)
- Sequence (P68400 whole entry): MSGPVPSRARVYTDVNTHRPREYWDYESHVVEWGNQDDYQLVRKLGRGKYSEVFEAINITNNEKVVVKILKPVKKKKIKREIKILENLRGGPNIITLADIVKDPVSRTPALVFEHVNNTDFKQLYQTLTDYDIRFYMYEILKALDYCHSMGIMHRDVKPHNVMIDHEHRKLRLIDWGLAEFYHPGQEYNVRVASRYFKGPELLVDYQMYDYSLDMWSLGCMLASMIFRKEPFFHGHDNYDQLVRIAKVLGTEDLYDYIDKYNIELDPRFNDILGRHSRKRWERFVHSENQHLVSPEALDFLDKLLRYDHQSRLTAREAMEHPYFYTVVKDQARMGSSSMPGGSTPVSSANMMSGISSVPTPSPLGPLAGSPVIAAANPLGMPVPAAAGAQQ
- Sequence (P67870 whole entry partner): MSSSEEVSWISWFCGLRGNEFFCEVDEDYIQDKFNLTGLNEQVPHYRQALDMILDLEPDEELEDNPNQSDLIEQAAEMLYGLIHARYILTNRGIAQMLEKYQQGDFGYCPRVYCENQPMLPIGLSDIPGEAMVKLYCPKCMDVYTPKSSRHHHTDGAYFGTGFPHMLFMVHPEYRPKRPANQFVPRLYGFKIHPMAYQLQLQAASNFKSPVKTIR
- ASSAY_INFO: CK2 assay (cell-free, 33P-ATP, phosphocellulose filter plate)
- Format: biochemical
ENDPOINT_LABEL: IC50

# count of solved cases: 5
1. O=C1NC(=O)/C(=C/c2cnn3c(NC4CC4)cc(-c4cccc(OCCCO)c4)nc23)N1 : < 10 nM
2. O=C1NC(=O)/C(=C/c2cnn3c(NC4CC4)cc(-c4cccc(OCC5CC5)c4)nc23)N1 : < 10 nM
3. O=C1NC(=O)/C(=C/c2cnn3c(NC4CC4)cc(-c4ccncc4)nc23)N1 : < 10 nM
4. CC(O)CN1CCC(Nc2cc(Nc3cccc(Cl)c3)nc3c(/C=C4\NC(=O)NC4=O)cnn23)CC1 (centres unmarked) : < 1000 nM
5. CC(C)(CO)CNc1cc(Nc2cccc(Cl)c2)nc2c(/C=C3\NC(=O)NC3=O)cnn12 : < 100 nM

Could you tell me which IC50 is on file for CNc1cc(-c2cccc(CNC(C)=O)c2)nc2c(/C=C3\NC(=O)NC3=O)cnn12 ?
< 100 nM

Could you tell me which IC50 is on file for O=C1NC(=O)/C(=C/c2cnn3c(NCC4CC4)cc(Nc4ccc(Cl)cc4)nc23)N1 ?
< 100 nM

Could you tell me which IC50 is on file for O=C1NC(=O)/C(=C/c2cnn3c(NC4CC4)cc(-c4cccc(OCCN5CCOCC5)c4)nc23)N1 ?
< 10 nM

Could you tell me which IC50 is on file for O=C1NC(=O)/C(=C/c2cnn3c(NC4CC4)cc(N4CCN(c5ccccn5)CC4)nc23)S1 ?
< 1000 nM

Where these numbers come from: patent US9303033B2
